# experimental target: Kif5b-RET fusion protein in HEK-293 cells (Homo sapiens)
# test protocol: cell-based
# condition context: HEK-293 cells expressing Kif5b-RET, phospho-RET(Tyr1062); read-out: KIF5B-RET pTYR1062 Cell IC50
parameter measured: IC50
Could you write the number and then its unit?

compound="CC(C)C(=O)N[C@@H]1CCCN(c2ccc(-c3cc(-c4cnn(C)c4)cn4ncc(C#N)c34)cn2)C1 [Example 226]" obs_value="57.1 nM"

Just so you know, measured IC50 for COCC(C)NC(=O)C1CCN(c2ccc(-c3cc(-c4cnn(C)c4)cn4ncc(C#N)c34)cn2)CC1 (stereo not shown) [Example 232] came out at 24.4 nM

Just so you know, measured IC50 for COC[C@H](O)CN1CCN(c2ccc(-c3cc(-c4cnn(C)c4)cn4ncc(C#N)c34)cn2)CC1 [Example 151] came out at 70.4 nM

Just so you know, measured IC50 for Cn1cc(-c2cc(-c3ccc(N4CCC(C(=O)NCCC(F)(F)F)CC4)nc3)c3c(C#N)cnn3c2)cn1 [Example 242] came out at 6.3 nM

* * *

# experimental target: Kif5b-RET fusion protein in HEK-293 cells (Homo sapiens, UniProt P07949)
# Sequence (P07949 29-1114 limits assumed): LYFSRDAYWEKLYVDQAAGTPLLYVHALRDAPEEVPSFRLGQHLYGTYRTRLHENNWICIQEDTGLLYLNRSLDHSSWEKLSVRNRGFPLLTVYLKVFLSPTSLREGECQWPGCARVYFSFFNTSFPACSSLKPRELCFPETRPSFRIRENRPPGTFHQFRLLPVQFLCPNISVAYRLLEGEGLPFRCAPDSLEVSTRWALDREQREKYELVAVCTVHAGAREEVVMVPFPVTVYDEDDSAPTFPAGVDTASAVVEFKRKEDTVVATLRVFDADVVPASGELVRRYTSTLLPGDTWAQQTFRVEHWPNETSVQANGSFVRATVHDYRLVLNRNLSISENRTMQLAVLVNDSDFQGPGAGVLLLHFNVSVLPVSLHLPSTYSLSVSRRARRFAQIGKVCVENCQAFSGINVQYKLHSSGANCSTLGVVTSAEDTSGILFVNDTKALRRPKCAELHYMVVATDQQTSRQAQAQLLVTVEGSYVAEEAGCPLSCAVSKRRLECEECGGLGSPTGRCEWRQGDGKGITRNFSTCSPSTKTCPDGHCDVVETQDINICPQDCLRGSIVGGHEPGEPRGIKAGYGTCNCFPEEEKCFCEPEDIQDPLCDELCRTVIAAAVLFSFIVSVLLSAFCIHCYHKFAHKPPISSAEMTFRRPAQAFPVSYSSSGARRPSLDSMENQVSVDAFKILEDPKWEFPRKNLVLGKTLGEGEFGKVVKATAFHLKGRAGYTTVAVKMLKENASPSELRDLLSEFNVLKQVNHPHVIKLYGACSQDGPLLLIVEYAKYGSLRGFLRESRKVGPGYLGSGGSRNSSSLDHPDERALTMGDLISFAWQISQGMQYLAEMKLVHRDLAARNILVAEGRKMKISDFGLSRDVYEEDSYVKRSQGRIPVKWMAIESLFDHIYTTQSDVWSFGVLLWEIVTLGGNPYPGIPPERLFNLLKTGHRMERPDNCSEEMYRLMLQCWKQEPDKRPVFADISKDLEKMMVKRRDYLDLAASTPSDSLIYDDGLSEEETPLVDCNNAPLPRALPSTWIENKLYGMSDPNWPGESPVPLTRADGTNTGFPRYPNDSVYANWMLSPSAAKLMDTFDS
# test protocol: cell-based
# condition context: HEK-293 cells expressing Kif5b-RET, phospho-RET(Tyr1062); read-out: KIF5B-RET pTYR1062 Cell IC50
# Protocol: The cellular potency of a compound inhibiting RET kinase was determined in HEK-293 cells expressing a Kif5b-RET fusion protein. Briefly, HEK-293 cells expressing a Kif5b-RET fusion protein were plated at 50K cells/well in 96 well poly-D-Lysine coated plates the day prior to the assay. […] The plates were washed with PBS-0.05% Tween20, 100 μL PBS was added to each well, and the plates were read on a LI-COR Aerius fluorescent plate reader. […]
parameter measured: pIC50
Please note pIC50 is a logarithmic value: minus log10 of concentration in mol/L. Answer with that number alone.

Examples with answers:
compound="CC(C)CN(C)C(=O)C1CCN(c2ccc(-c3cc(-c4cnn(C)c4)cn4ncc(C#N)c34)cn2)CC1 [Example 244]" parameter_measured=pIC50 obs_value=7.16
compound="CC(C)CNC(=O)N1CCN(c2ccc(-c3cc(-c4cnn(C)c4)cn4ncc(C#N)c34)cn2)CC1 [Example 133]" parameter_measured=pIC50 obs_value=8.77
compound="C[C@@H](NC(=O)C1CCN(c2ccc(-c3cc(-c4cnn(C)c4)cn4ncc(C#N)c34)cn2)CC1)C(F)(F)F [Example 233]" parameter_measured=pIC50 obs_value=7.56
compound="Cn1cc(-c2cc(-c3ccc(N4CCN(C(=O)CC(C)(C)C)CC4)nc3)c3c(C#N)cnn3c2)cn1 [Example 65]" parameter_measured=pIC50 obs_value=7.41
compound="CCC1(C(=O)N[C@H](C)C(F)(F)F)CCN(c2ccc(-c3cc(-c4cnn(C)c4)cn4ncc(C#N)c34)cn2)CC1 [Example 257]" parameter_measured=pIC50 obs_value=8.03

Tested on Kif5b-RET fusion protein in HEK-293 cells (Homo sapiens, UniProt P07949): CC(C)NC(=O)N1CCN(c2ccc(-c3cc(-c4cnn(C)c4)cn4ncc(C#N)c34)cn2)CC1 [Example 126] . Observed pIC50: 7.97

Tested on Kif5b-RET fusion protein in HEK-293 cells (Homo sapiens, UniProt P07949): CC(C)OC(=O)NC1CCN(c2ccc(-c3cc(-c4cnn(C)c4)cn4ncc(C#N)c34)cn2)CC1 [Example 188] . Observed pIC50: 8.01

Tested on Kif5b-RET fusion protein in HEK-293 cells (Homo sapiens, UniProt P07949): Cn1cc(-c2cc(-c3ccc(N4CCN(S(=O)(=O)NC(C)(C)C)CC4)nc3)c3c(C#N)cnn3c2)cn1 [Example 137] . Observed pIC50: 8.28

Tested on Kif5b-RET fusion protein in HEK-293 cells (Homo sapiens, UniProt P07949): Cn1cc(-c2cc(-c3ccc(N4CCN(S(C)(=O)=O)CC4)nc3)c3c(Cl)cnn3c2)cn1 [Example 332] . Observed pIC50: 7.33

* * *

# experimental target: human KDR protein in HEK-293 cells (Homo sapiens (Human))
# test protocol: KDR Cell Assay (phospho-KDR in HEK-293 cells expressing inducible KDR)
# Assay type: cell-based
# condition context: pKDR Cell HEK 10% FBS IC50, HEK-293 cells expressing inducible KDR, VEGF stimulated
parameter measured: IC50 (nM)
Please give a number only; it is taken to be in nM.

Examples with answers:
molecule="Cn1cc(-c2cc(-c3ccc(N4CCC(O)(C(F)(F)F)C4)nc3)c3c(C#N)cnn3c2)cn1 (stereo not shown) [Example 531, 2,2,2-trifluoroacetate]" units_text=nM obs_value=690
molecule="Cn1cc(-c2cc(-c3ccc(N4CCC(C(=O)NOCC5CC5)CC4)nc3)c3c(C#N)cnn3c2)cn1 [Example 563]" units_text=nM obs_value=195
molecule="CN(C)c1ccccc1CN1CCN(c2ccc(-c3cc(-c4cnn(C)c4)cn4ncc(C#N)c34)cn2)CC1 [Example 460]" units_text=nM obs_value=1780

Just so you know, measured IC50 for Cn1cc(-c2cc(-c3ccc(N4CCN(C(=O)N5CC6C(C5)C6(C)C)CC4)nc3)c3c(C#N)cnn3c2)cn1 (stereo not shown) [Example 384] came out at 1040

* * *

# experimental target: Kif5b-RET fusion protein in HEK-293 cells (Homo sapiens, UniProt P07949)
# test protocol: cell-based
# condition context: HEK-293 cells expressing Kif5b-RET, phospho-RET(Tyr1062); read-out: KIF5B-RET pTYR1062 Cell IC50
parameter measured: IC50 (nM)
Please give a number only; it is taken to be in nM.

Examples with answers:
compound="CC(C)[C@@H](O)C(=O)N1CCN(c2ccc(-c3cc(-c4cnn(C)c4)cn4ncc(C#N)c34)cn2)CC1 [Example 85]" parameter_measured=IC50 obs_value=6.5
compound="CCCC(=O)N1CCN(c2ccc(-c3cc(-c4cnn(C)c4)cn4ncc(C#N)c34)cn2)CC1 [Example 70]" parameter_measured=IC50 obs_value=18.5
compound="Cn1cc(-c2cc(-c3ccc(N4CCN(C(=O)CN(C(=O)OC(C)(C)C)C(C)(C)C)CC4)nc3)c3c(C#N)cnn3c2)cn1 [Example 18]" parameter_measured=IC50 obs_value=19.8
compound="COCC(C)NC(=O)C1(C)CCN(c2ccc(-c3cc(-c4cnn(C)c4)cn4ncc(C#N)c34)cn2)CC1 (stereo not shown) [Example 252]" parameter_measured=IC50 obs_value=4.8
compound="COC(C)CNC(=O)C1CCN(c2ccc(-c3cc(-c4cnn(C)c4)cn4ncc(C#N)c34)cn2)CC1 (stereo not shown) [Example 239]" parameter_measured=IC50 obs_value=5.8
compound="CC(C)COC1CCN(c2ccc(-c3cc(-c4cnn(C)c4)cn4ncc(C#N)c34)cn2)CC1 [Example 197]" parameter_measured=IC50 obs_value=39.6

Next up:
Just so you know, measured IC50 for CC(C)CC(=O)N1CCN(c2ccc(-c3cc(-c4cnn(C(F)F)c4)cn4ncc(C#N)c34)cn2)CC1 [Example 267] came out at 13.6

* * *

# experimental target: Kif5b-RET fusion protein in HEK-293 cells (Homo sapiens, UniProt P07949)
# test protocol: cell-based
# condition context: HEK-293 cells expressing Kif5b-RET, phospho-RET(Tyr1062); read-out: KIF5B-RET pTYR1062 Cell IC50
Could you please mark True for values of IC50 below 50 nM and False for values at or above it?

Look over these answered cases.
compound=COCCNC(=O)N1CCN(c2ccc(-c3cc(-c4cnn(C)c4)cn4ncc(C#N)c34)cn2)CC1 class=True
compound="CC(C)C(O)CN1CCN(c2ccc(-c3cc(-c4cnn(C)c4)cn4ncc(C#N)c34)cn2)CC1 (stereo not shown)" class=True
compound=C[C@H](O)C(=O)N1CCN(c2ccc(-c3cc(-c4cnn(C)c4)cn4ncc(C#N)c34)cn2)CC1 class=False
compound="CC(C)NC(=O)CN1CCN(c2ccc(-c3cc(-c4cnn(C)c4)cn4ncc(C#N)c34)cn2)CC1 [Example 144, 2,2,2-trifluoroacetate]" class=False
compound=COCC(=O)N1CCN(c2ccc(-c3cc(-c4cnn(C)c4)cn4ncc(Cl)c34)cn2)CC1 class=True
compound=Cn1cc(-c2cc(-c3ccc(N4CCC(C(=O)NCC(F)(F)F)CC4)nc3)c3c(C#N)cnn3c2)cn1 class=True

IN: Criterion: IC50 strictly below 50 nM. Is it met by `Cn1cc(-c2cc(-c3ccc(N4CCC(NC(=O)OC(C)(C)C)CC4)nc3)c3c(C#N)cnn3c2)cn1` ?
OUT: True

* * *

# experimental target: human KDR protein in HEK-293 cells (Homo sapiens (Human), UniProt P35968)
# Sequence (P35968 20-1356): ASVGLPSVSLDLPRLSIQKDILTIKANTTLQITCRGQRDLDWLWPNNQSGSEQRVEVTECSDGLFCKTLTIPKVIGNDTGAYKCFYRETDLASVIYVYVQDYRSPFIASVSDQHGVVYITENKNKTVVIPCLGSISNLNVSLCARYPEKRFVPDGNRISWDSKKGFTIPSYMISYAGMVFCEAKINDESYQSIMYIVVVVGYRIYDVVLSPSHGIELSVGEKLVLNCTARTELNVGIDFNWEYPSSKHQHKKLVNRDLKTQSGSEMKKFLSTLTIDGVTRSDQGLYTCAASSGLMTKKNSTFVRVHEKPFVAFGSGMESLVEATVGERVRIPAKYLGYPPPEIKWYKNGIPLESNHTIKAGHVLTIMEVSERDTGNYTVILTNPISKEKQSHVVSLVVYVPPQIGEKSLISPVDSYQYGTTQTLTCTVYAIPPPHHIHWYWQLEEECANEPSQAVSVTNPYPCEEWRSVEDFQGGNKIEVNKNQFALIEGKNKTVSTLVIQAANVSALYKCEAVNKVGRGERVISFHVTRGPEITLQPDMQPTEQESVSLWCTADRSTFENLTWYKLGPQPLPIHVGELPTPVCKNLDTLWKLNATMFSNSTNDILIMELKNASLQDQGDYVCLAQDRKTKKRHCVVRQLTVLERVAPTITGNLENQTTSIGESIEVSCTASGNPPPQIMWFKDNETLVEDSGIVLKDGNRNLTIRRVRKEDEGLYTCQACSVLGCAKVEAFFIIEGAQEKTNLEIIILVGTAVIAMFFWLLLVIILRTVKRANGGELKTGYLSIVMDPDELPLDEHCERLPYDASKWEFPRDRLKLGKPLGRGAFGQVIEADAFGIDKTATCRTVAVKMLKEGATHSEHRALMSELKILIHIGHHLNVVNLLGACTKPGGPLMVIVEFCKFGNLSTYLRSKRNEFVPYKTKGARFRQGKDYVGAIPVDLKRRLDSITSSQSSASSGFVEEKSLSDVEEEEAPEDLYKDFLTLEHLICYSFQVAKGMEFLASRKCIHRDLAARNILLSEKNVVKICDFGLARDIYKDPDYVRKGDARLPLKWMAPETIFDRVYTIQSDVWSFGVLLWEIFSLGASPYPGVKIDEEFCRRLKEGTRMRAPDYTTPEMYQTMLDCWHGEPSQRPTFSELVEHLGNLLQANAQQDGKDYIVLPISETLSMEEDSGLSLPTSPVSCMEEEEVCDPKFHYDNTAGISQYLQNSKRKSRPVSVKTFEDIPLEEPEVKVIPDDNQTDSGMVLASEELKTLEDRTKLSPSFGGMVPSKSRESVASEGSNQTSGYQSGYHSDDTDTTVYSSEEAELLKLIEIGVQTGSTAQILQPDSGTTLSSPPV
# test protocol: KDR Cell Assay (phospho-KDR in HEK-293 cells expressing inducible KDR)
# Type: cell-based
# condition context: pKDR Cell HEK 10% FBS IC50, HEK-293 cells expressing inducible KDR, VEGF stimulated, 10% FBS
Reported log10 IC50 values for a set of compounds
Annotation: log10 of IC50, µM basis.

Examples with answers:
compound="Cn1cc(-c2cc(-c3ccc(N4CCN(C(=O)C5(c6ccc(Cl)cc6Cl)CC5)CC4)nc3)c3c(C#N)cnn3c2)cn1 [Example 343]" obs_value=0.22
compound="C[C@@H](O)Cn1cc(-c2cc(-c3ccc(N4CCN(C(=O)CC(C)(C)C)CC4)cc3)c3c(C#N)cnn3c2)cn1 [Example 305]" obs_value=0.17
compound="Cn1cc(-c2cc(-c3ccc(N4CCN(C(=O)N5CCCC(F)C5)CC4)nc3)c3c(C#N)cnn3c2)cn1 (centres unmarked) [Example 116]" obs_value=0.36
compound="CNS(=O)(=O)N1CCN(c2ccc(-c3cc(-c4cnn(C)c4)cn4ncc(C#N)c34)cc2)CC1 [Example 299]" obs_value=-0.82

Next up:
Just so you know, measured log10 IC50 for Cn1cc(-c2cc(-c3ccc(N4CCC(NC(=O)C(C)(C)O)CC4)nc3)c3c(C#N)cnn3c2)cn1 [Example 179] came out at -0.26

Values from patent US10023570B2
